# Tested on: human CYP1A2 (Homo sapiens, UniProt P05177)
# Sequence (P05177 2-516 limits assumed): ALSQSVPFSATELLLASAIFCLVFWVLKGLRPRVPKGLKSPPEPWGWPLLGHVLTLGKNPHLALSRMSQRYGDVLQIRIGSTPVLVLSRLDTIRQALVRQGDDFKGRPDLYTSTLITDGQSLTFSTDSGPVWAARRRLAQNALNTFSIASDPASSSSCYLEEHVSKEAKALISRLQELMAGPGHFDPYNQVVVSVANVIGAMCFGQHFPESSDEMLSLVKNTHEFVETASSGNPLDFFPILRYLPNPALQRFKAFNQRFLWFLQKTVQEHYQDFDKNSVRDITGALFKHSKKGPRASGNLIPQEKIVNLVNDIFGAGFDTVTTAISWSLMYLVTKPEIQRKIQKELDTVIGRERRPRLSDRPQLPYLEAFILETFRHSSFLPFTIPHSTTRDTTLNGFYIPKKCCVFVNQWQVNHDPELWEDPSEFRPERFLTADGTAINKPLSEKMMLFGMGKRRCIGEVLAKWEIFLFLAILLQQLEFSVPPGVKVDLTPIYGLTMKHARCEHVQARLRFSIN
# Test summary: 7-Methoxyresorufin O-demethylation
# Format: biochemical
Attribute: IC50
Give a bare numeral; the unit nM is implied.

INSERT INTO measurements (entry_smiles, reported_value) VALUES
  ('C#Cc1ccc2c(ccc3ccccc32)c1', 340);

Give its IC50 value. Item: CC#Cc1ccc2c(ccc3ccccc32)c1 600

// query IC50 value for entry CC#Cc1ccc2ccc3cccc4ccc1c2c34 60

If you can, please state the reported IC50 value of C#Cc1ccc2ccc3ccccc3c2c1 . 280

Need IC50, item C#Cc1ccc2ccc3cccc4ccc1c2c34 320

So what does the record say about IC50 for CCC#Cc1ccc2ccc3cccc4ccc1c2c34 ? 430
